test system: TK-10 renal; assay: NCI-60 one-dose screen, 48 h (100 = growth as untreated, 0 = no growth, -100 = all killed); conditions: 10 µM unless noted
This is part of a sample that, as a whole, favours compounds with a hit. Of some 83,000 tested, about 20% had one in any assay.
For each entry below, report its growth value.
Numbers only, in %.

Oc1ccc(CN2CCC(N3CCOCC3)CC2)c2cccnc12 | 30.6
CC/C=C\CCC/C=C1/C(=O)C=C[C@@H]1C/C=C\CCCC(=O)O | 114

Next up:
Kindly state the measured growth obtained for "Nc1cc2c3c(cccc3c1)C(=O)N(CCN1CCCC1)C2=O" with TK-10 renal.
105
